Exercise: for every item that follows, state its recorded LD50.
assay: Lethal Dose in mice (in vivo); settings: mouse
Answers are plain numbers, in mg/kg.

- CC(C)c1cccc(C(C)C)c1O: 32
- [2H]c1cc(C(C)C)c(O)c(C(C)C)c1: 39

Let us examine a further case.
Query: I have this compound here, [2H]c1c([2H])c(C(C)C)c(O)c(C(C)C)c1[2H] , and I need its recorded LD50.
Result: 35
